- system name: acetylcholine receptor
- procedure summary: SPR, AchR immobilised on CM5 chip, peptide at 10 uM
readout: Binding affinity (RU)
Field: numeric (RU). Do not append units.

A selection of reference data follows.
KKCIR [5mer-888] :: 31
RNMNR [5mer-1165] :: 21

Memo: KRWVLR [6mer-1-427] , reported Binding affinity (RU): 147

Memo: KKAKR [5mer-1181] , reported Binding affinity (RU): 22

Memo: KFCER [5mer-897] , reported Binding affinity (RU): 30

Memo: RYAKK [5mer-1192] , reported Binding affinity (RU): 28

Memo: KPSGK [5mer-1188] , reported Binding affinity (RU): 30

Memo: KETDR [5mer-1149] , reported Binding affinity (RU): 25
